Tested on: NCI-H2170
assay_text: relative viability (nuclei count vs DMSO), 5 days (fraction); higher = more cells survive
particulars: first compound 158.11 µM
Would you kindly list relative viability for each of these molecules?
Give bare numbers.

Sample answers from the record:
INSERT INTO measurements (molecule, observed) VALUES
  ('O=C(O)CCCCC(CCSCc1ccccc1)SCc1ccccc1 (configuration not stated) [CPI-613] + NC(=O)Nc1cc(-c2cccc(F)c2)sc1C(=O)N[C@H]1CCCNC1 [AZD7762] (partner 0.2 µM)', 0.607),
  ('O=C(O)CCCCC(CCSCc1ccccc1)SCc1ccccc1 (configuration not stated) [CPI-613] + Cc1cc(Nc2cc(N3CCN(C)CC3)nc(Sc3ccc(NC(=O)C4CC4)cc3)n2)n[nH]1 [Tozasertib] (partner 0.1 µM)', 0.347),
  ('O=C(O)CCCCC(CCSCc1ccccc1)SCc1ccccc1 (configuration not stated) [CPI-613] + CCNC(=O)c1noc(-c2cc(C(C)C)c(O)cc2O)c1-c1ccc(CN2CCOCC2)cc1 [Luminespib] (partner 0.01 µM)', 0.196),
  ('O=C(O)CCCCC(CCSCc1ccccc1)SCc1ccccc1 (configuration not stated) [CPI-613] + O=C(CCCCCCC(=O)Nc1ccccc1)NO [Vorinostat] (partner 1 µM)', 0.541),
  ('O=C(O)CCCCC(CCSCc1ccccc1)SCc1ccccc1 (configuration not stated) [CPI-613] + N=C(N)NC(=N)NCCc1ccccc1 [Phenformin] (partner 250 µM)', 0.352);

For every record below, what is its relative viability?
1. O=C(O)CCCCC(CCSCc1ccccc1)SCc1ccccc1 (configuration not stated) [CPI-613] + Cc1nc(NC(=O)N2CCC[C@H]2C(N)=O)sc1-c1ccnc(C(C)(C)C(F)(F)F)c1 [Alpelisib] (partner 2 µM)
2. O=C(O)CCCCC(CCSCc1ccccc1)SCc1ccccc1 (configuration not stated) [CPI-613] + O=C(c1cc(Cc2n[nH]c(=O)c3ccccc23)ccc1F)N1CCN(C(=O)C2CC2)CC1 [Olaparib] (partner 8 µM)

Result:
1. 0.547
2. 0.403

====

Would you kindly list relative viability for each of these compounds?
System: NCI-H1993
assay_text: relative viability (nuclei count vs DMSO), 5 days (fraction); higher = more cells survive
particulars: first compound 0.5 µM
Answers are plain numbers.

Sample answers from the record:
INSERT INTO assay_data (compound, observed) VALUES
  ('Nc1ccn([C@@H]2O[C@H](CO)[C@@H](O)[C@@H]2O)c(=O)n1 [Cytarabine] + COc1cc2c(Oc3ccc(NC(=O)C4(C(=O)Nc5ccc(F)cc5)CC4)cc3F)ccnc2cc1OCCCN1CCOCC1 [Foretinib] (partner 0.25 µM)', 0.468),
  ('Nc1ccn([C@@H]2O[C@H](CO)[C@@H](O)[C@@H]2O)c(=O)n1 [Cytarabine] + Cc1nc(NC(=O)N2CCC[C@H]2C(N)=O)sc1-c1ccnc(C(C)(C)C(F)(F)F)c1 [Alpelisib] (partner 2 µM)', 0.517),
  ('COc1cc2nccc(Oc3ccc(NC(=O)Nc4cc(C)on4)c(Cl)c3)c2cc1OC [Tivozanib] + C[C@]1(O)C[C@@H](c2nc(-c3ccc4ccc(-c5ccccc5)nc4c3)c3c(N)nccn32)C1 [Linsitinib] (partner 1 µM)', 0.758);

Below: the item to evaluate.
For this compound ( COc1cc2nccc(Oc3ccc(NC(=O)Nc4cc(C)on4)c(Cl)c3)c2cc1OC [Tivozanib] + Nc1ncn([C@H]2C[C@H](O)[C@@H](CO)O2)c(=O)n1 [Decitabine] (partner 2 µM) ), measured relative viability is 0.592
